Hey, just so you know, these numbers are from paper PMC11012289.

# target-or-system: IRAP (Homo sapiens, UniProt Q9UIQ6)
# Construct: The screen was performed with the soluble truncated IRAP enzyme; made in house
# Sequence (Q9UIQ6 155-1025 limits assumed): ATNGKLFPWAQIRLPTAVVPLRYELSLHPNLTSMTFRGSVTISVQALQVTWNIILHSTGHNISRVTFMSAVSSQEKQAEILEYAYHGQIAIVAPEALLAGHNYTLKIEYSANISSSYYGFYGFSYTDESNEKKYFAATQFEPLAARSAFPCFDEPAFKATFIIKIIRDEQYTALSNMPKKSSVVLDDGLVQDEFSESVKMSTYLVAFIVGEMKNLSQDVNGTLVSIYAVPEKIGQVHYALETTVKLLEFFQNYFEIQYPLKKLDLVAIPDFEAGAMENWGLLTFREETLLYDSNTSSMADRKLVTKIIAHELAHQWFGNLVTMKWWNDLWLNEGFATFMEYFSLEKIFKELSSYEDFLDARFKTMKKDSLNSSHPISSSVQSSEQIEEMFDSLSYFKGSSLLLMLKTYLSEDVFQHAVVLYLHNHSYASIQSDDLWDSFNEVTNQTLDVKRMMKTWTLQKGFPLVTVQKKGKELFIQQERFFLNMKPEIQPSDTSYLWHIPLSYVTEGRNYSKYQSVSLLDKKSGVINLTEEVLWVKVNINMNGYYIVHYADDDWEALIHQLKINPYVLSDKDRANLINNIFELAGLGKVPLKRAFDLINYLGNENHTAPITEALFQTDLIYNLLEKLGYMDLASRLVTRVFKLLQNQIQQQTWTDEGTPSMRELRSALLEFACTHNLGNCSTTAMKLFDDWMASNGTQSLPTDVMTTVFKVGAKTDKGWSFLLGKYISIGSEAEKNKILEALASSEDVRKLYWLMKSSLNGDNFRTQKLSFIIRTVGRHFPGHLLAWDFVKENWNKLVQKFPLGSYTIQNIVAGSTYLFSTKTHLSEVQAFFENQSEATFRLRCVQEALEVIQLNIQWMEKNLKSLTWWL
# assay-protocol: Primary fluorescence IRAP assay (L-Leucine-7-amido-4-methylcoumarin cleavage)
# Type: biochemical
# measurement-conditions: 8 µl end volume, 90 min; read-out: EC50 (best-fit)
assay-readout: EC50

query: # return recorded EC50 for entry O=S(=O)(Nc1cccc(-c2nnn[nH]2)c1)c1cc(Cl)c(Cl)cc1Cl [I, reference compound]
result: 34 µM

----------
# target-or-system: IRAP (Homo sapiens)
# Construct: The screen was performed with the soluble truncated IRAP enzyme; made in house
# assay-protocol: Primary fluorescence IRAP assay (L-Leucine-7-amido-4-methylcoumarin cleavage)
# Format: biochemical
# measurement-conditions: 4 µl end volume, 90 min; read-out: EC50 (best-fit)
assay-readout: EC50 (µM)
Kindly answer with a numeric value in µM, unit omitted.

query: # return recorded EC50 for entry O=S(=O)(Nc1cccc(-c2nnn[nH]2)c1)c1cc(Cl)c(Cl)cc1Cl [I, reference compound]
result: 30.4
